protocol_notes: total protein half-life in vivo (active degradation + dilution); higher = more stable protein
assay_setup: wild type E. coli NCM3722; growth: C-lim chemostat; doubling time 3 h
property_name: total protein half-life in vivo (h)
Express the result in h but write the number alone.

Exercise: Which total protein half-life in vivo is listed for "MKALARFGKAFGGYKMIDVPQPMCGPEDVVIEIKAAAICGADMKHYNVDSGSDEFNSIRGHEFAGCIAQVGEKVKDWKVGQRVVSDNSGHVCGVCPACEQGDFLCCTEKVNLGLDNNTWGGGFSKYCLVPGEILKIHRHALWEIPDGVDYEDAAVLDPICNAYKSIAQQSKFLPGQDVVVIGTGPLGLFSVQMARIMGAVNIVVVGLQEDVAVRFPVAKELGATAVVNGSTEDVVARCQQICGKDNLGLVIECSGANIALKQAIEMLRPNGEVVRVGMGFKPLDFSINDITAWNKSIIGHMAYDSTSWRNAIRLLASGAIKVKPMITHRIGLSQWREGFDAMVDKTAIKVIMTYDFDE" ?
Key: 1.33

Exercise: Which total protein half-life in vivo is listed for MKLFYKPGACSLASHITLRESGKDFTLVSVDLMKKRLENGDDYFAVNPKGQVPALLLDDGTLLTEGVAIMQYLADSVPDRQLLAPVNSISRYKTIEWLNYIATELHKGFTPLFRPDTPEEYKPTVRAQLEKKLQYVNEALKDEHWICGQRFTIADAYLFTVLRWAYAVKLNLEGLEHIAAFMQRMAERPEVQDALSAEGLK [P0A9D2] ?
Key: 2.84

Exercise: Which total protein half-life in vivo is listed for "MDVRQSIHSAHAKTLDTQGLRNEFLVEKVFVADEYTMVYSHIDRIIVGGIMPITKTVSVGGEVGKQLGVSYFLERRELGVINIGGAGTITVDGQCYEIGHRDALYVGKGAKEVVFASIDTGTPAKFYYNCAPAHTTYPTKKVTPDEVSPVTLGDNLTSNRRTINKYFVPDVLETCQLSMGLTELAPGNLWNTMPCHTHERRMEVYFYFNMDDDACVFHMMGQPQETRHIVMHNEQAVISPSWSIHSGVGTKAYTFIWGMVGENQVFDDMDHVAVKDLR" ?
Key: 3.43
